Target: HIV-1 protease (Q7S mutant form) (Human immunodeficiency virus type 1 group M subtype B, UniProt P04585, Q495S)
Construct: made in house
Test: HIV-1 Protease RET assay
Format: biochemical
Conditions: Ave. Ki (nM), RET assay, Q7S enzyme, Morrison tight binding fit
# Ki per entry
Give your result in nM as a bare value.

Please review the following examples before continuing.
Ask: Quick one: Ki for "CC1(C)SCN(C(=O)[C@@H](O)[C@H](Cc2ccccc2)NC(=O)O[C@H]2CCOC2)[C@@H]1C(=O)NCC1CC1" ?
Result: 2.1

Ask: Item "Cc1cccc(C)c1OCC(=O)N[C@@H](Cc1ccccc1)[C@H](O)C(=O)N1CSC(C)(C)[C@H]1C(=O)NCC1CC1" has what recorded Ki?
Result: 0.5

Ask: Which Ki value is on record for "CCCNC(=O)[C@H]1N(C(=O)[C@@H](O)[C@H](Cc2ccccc2)NC(=O)c2cccc(O)c2C)CSC12CCCC2" ?
Result: 0.13

---
Ask: Using the record for "Cc1ccccc1CNC(=O)[C@H]1N(C(=O)[C@@H](O)[C@H](Cc2ccccc2)NC(=O)c2cccc3[nH]ccc23)CSC1(C)C" , report its Ki.
Result: 0.63

Ask: Would you mind telling me what Ki value was observed for "C/C=C(\C)CNC(=O)[C@@H]1CC(F)(F)CN1C(=O)[C@@H](O)[C@H](Cc1ccccc1)NC(=O)c1cccc(O)c1C" ?
Result: 1.5

Ask: Requested read-out: Ki. Entry: "Cc1ccccc1CNC(=O)[C@@H]1CC(F)(F)CN1C(=O)[C@@H](O)[C@H](Cc1ccccc1)NC(=O)c1ccc(C)c(O)c1C"
Result: 4

Ask: // Ki lookup, key: "Cc1c(O)cccc1C(=O)N[C@@H](Cc1ccccc1)[C@H](O)C(=O)N1CSC(C)(C)[C@H]1C(=O)N[C@@H]1CCOc2ccccc21"
Result: 0.43

Ask: Data request, read-out Ki, for "Cc1ccccc1CNC(=O)[C@H]1N(C(=O)[C@@H](O)[C@H](Cc2ccccc2)NC(=O)c2cccc(O)c2C)CSC12CCCCC2"
Result: 0.17
